assay: Drug level in C57BL/6J DIO mouse brain at 3 mg/kg, po after 22 days; assay type: ADME, organism-based; parameters: dose 3 mg/kg, route oral; conditions: read-out: Drug uptake
experimentalReadout: concentration at 528 h (ng/g)
// return numeric value only (unit: ng/g, not printed)

Which concentration at 528 h reading was recorded for the molecule O=C(NC1CCN(Cc2ccc3c(c2)OCO3)CC1)c1cc(=O)c2ccc(F)cc2o1 ?
1110

---

test: Ratio of AUC in brain to plasma of C57BL/6J DIO mouse at 10 mg/kg, po; assay type: ADME, organism-based; set-up: dose 10 mg/kg, route oral; details: brain and plasma, read-out: Ratio AUC
experimentalReadout: Kp
// return just the number, without any unit appended

COc1ccc2c(=O)cc(C(=O)NC3CCN(Cc4ccc5c(c4)OCO5)CC3)oc2c1 = 0.24

# lookup: Kp of O=C(NC1CCN(Cc2ccc3c(c2)OCO3)CC1)c1cc(=O)c2ccc(F)cc2o1
1.4

---

assay: Drug level in C57BL/6J DIO mouse brain at 30 mg/kg, po after 14 days; assay type: ADME, organism-based; set-up: dose 30 mg/kg, route oral; conditions: read-out: Drug uptake
experimentalReadout: concentration at 336 h (ng/g)
Please reply with the bare figure in ng/g and do not write the unit itself.

Entry under review: COc1ccc2c(=O)cc(C(=O)NC3CCN(Cc4ccc5c(c4)OCO5)CC3)oc2c1 . Reported concentration at 336 h?
27100

---

assay: Drug level in C57BL/6J DIO mouse plasma at 3 mg/kg, po after 22 days; format: ADME, organism-based; set-up: dose 3 mg/kg, route oral
experimentalReadout: concentration at 528 h

concentration at 528 h lookup needed for O=C(NC1CCN(Cc2ccc3c(c2)OCO3)CC1)c1cc(=O)c2ccc(F)cc2o1 , thanks.
840 ng/mL

---

experiment: Drug level in C57BL/6J DIO mouse plasma at 30 mg/kg, po after 14 days; assay type: ADME, organism-based; set-up: dose 30 mg/kg, route oral
experimentalReadout: concentration at 336 h (ng/mL)
Numeric answer only, unit ng/mL assumed.

Recorded concentration at 336 h of COc1ccc2c(=O)cc(C(=O)NC3CCN(Cc4ccc5c(c4)OCO5)CC3)oc2c1 , please.
32900

---

Listing of entries alongside the reported Drug uptake.
system: Rattus norvegicus; assay: Drug level in anesthetized Sprague-Dawley rat brain; assay type: ADME, organism-based; settings: in vivo
Your answer is read as µg/g, so omit the unit and give the number.

O=C(NC1CCN(Cc2ccc3c(c2)OCO3)CC1)c1cc(=O)c2ccc(F)cc2o1 = 126
COc1cc2oc(C(=O)NC3CCN(Cc4ccc5c(c4)OCO5)CC3)cc(=O)c2cc1F = 149
O=C(NC1CCN(Cc2ccc3c(c2)OCO3)CC1)c1cc(=O)c2cc(Cl)c(Cl)cc2o1 = 63
O=C(NC1CCN(Cc2ccc3c(c2)OCO3)CC1)c1cc(=O)c2cc(F)c(F)cc2o1 = 25

Turning to the following compound.
Which Drug uptake reading was recorded for the compound COc1ccc2c(=O)cc(C(=O)NC3CCN(Cc4ccc5c(c4)OCO5)CC3)oc2c1 ?
158

---

target: Melanin-concentrating hormone receptor 1 (Homo sapiens, UniProt Q99705); experiment: Antagonist activity at MCHr1 assessed as inhibition of MCH-mediated calcium ion release in intact IMR32 cells by FLIPR assay; type: functional, cell-based, IMR-32
Sequence (Q99705 whole entry): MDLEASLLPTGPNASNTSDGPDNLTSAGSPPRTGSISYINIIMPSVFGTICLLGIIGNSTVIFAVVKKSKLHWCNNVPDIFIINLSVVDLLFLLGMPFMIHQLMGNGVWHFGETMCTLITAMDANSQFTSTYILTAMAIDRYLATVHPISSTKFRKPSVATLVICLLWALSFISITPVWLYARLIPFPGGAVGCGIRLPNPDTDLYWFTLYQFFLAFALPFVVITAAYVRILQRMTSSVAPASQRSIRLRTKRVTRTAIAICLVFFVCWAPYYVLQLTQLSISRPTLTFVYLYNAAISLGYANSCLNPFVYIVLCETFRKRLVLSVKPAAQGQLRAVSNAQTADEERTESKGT
Measured pIC50, listed per entry.
Quick note: pIC50 values are minus log10 of concentrations in mol/L.

COc1cccc(CN2CCC(NC(=O)c3cc(=O)c4ccc(F)cc4o3)CC2)c1 = 6.41
O=C(NC1CCN(Cc2cccc(F)c2)CC1)c1cc(=O)c2ccc(F)cc2o1 = 6.02
O=C(NC1CCN(Cc2ccc3c(c2)OCO3)CC1)c1cc(=O)c2cc(F)cc(F)c2o1 = 5.57
O=C(NC1CCN(Cc2ccc3c(c2)OCO3)CC1)c1cc(=O)c2ccc(OC(F)F)cc2o1 = 6.80
O=C(NC1CCN(Cc2ccc(F)cc2)CC1)c1cc(=O)c2ccc(F)cc2o1 = 6.10

Entry COc1ccc(CN2CCC(NC(=O)c3cc(=O)c4ccc(F)cc4o3)CC2)c(F)c1 has what pIC50?
6.39

Fill in the blank: the reported pIC50 of COc1ccc(CN2CCC(NC(=O)c3cc(=O)c4ccc(F)cc4o3)CC2)cc1 is ____.
7.00

---

target: Melanin-concentrating hormone receptor 1 (Homo sapiens); assay: Displacement of [125I]MCH from MCHr1 expressed in IMR32 cells; type: cell-based, IMR-32
experimentalReadout: pIC50
Please express pIC50 as -log10 of the molar concentration.

Known results for molecules:
O=C(NC1CCN(Cc2ccc3c(c2)OCO3)CC1)c1cc(=O)c2ccccc2o1 = 7.18
COc1ccc2c(=O)cc(C(=O)NCC3CCN(Cc4ccc5c(c4)OCO5)C3)oc2c1 (centres undefined) = 5.94
O=C(NC1CCN(Cc2ccc3c(c2)OCO3)CC1)c1cc(=O)c2cc(C(F)(F)F)ccc2o1 = 6.45
O=C(NC1CCN(Cc2ccc3c(c2)OCO3)CC1)c1cc(=O)c2cc(F)c(F)cc2o1 = 8.70
O=C(NC1CCN(Cc2ccc3c(c2)OCO3)CC1)c1cc(=O)c2ccc(Cl)cc2o1 = 8.30
O=C(NC1CCN(Cc2ccc3c(c2)OCO3)CC1)c1cc(=O)c2cc(Br)ccc2o1 = 6.73

Please look up its pIC50: COc1cc2oc(C(=O)NC3CCN(Cc4ccc5c(c4)OCO5)CC3)cc(=O)c2cc1F
8.70

Consider the molecule O=C(NC1CCN(Cc2ccc3c(c2)OCO3)CC1)c1cc(=O)c2ccc(C(F)(F)F)cc2o1 and give its measured pIC50.
6.75

Please report the recorded pIC50 for O=C(NC1CCN(Cc2ccc3c(c2)OCO3)CC1)c1cc(=O)c2cc(F)c(F)c(F)c2o1 .
7.04

What does the data say about its pIC50? Entry: O=C(NC1CCN(Cc2ccc3c(c2)OCO3)CC1)c1cc(=O)c2ccc(Br)cc2o1
7.49

Looking for the measured pIC50 of N#Cc1ccc2c(=O)cc(C(=O)NC3CCN(Cc4ccc5c(c4)OCO5)CC3)oc2c1 , can you help?
7.33

Query: pIC50; subject: O=C(NC1CCN(Cc2ccc3c(c2)OCO3)CC1)c1cc(=O)c2cc(OC(F)(F)F)ccc2o1
6.88

---

assay: AUC in C57BL/6J DIO mouse plasma at 10 mg/kg, po; type: ADME, organism-based; design: dose 10 mg/kg, route oral
AUC for assorted compounds
The reply should be a number in ng·h/mL, with the unit left off.

O=C(NC1CCN(Cc2ccc3c(c2)OCO3)CC1)c1cc(=O)c2cc(Cl)c(Cl)cc2o1 = 39

Consider the record given below.
Quick one: AUC for O=C(NC1CCN(Cc2ccc3c(c2)OCO3)CC1)c1cc(=O)c2ccc(F)cc2o1 ?
9290

---

biological target: UniProt Q99705; test: Displacement of [125I]MCH from MCHr1 expressed in IMR32 cells; format: cell-based, IMR-32
experimentalReadout: IC50 (nM)
Return type: number; implicit unit nM.

O=C(NC1CCN(Cc2cc3c(cc2Cl)OCO3)CC1)c1cc(=O)c2ccc(F)cc2o1 = 22
COc1ccc2c(=O)cc(C(=O)NC3CCN(Cc4ccc5c(c4)OCO5)CC3)oc2c1 = 11

Give UniProt Q99705 IC50 for O=C(NC1CCN(Cc2ccc3c(c2)OCO3)CC1)c1cc(=O)c2ccc(OC(F)F)cc2o1
64

Can you look up IC50 on UniProt Q99705 for O=C(NC1CCN(Cc2ccc3c(c2)OC(F)(F)O3)CC1)c1cc(=O)c2ccc(F)cc2o1 ?
57

Entry O=C(NC1CCN(Cc2ccccc2)CC1)c1cc(=O)c2ccc(F)cc2o1 , system UniProt Q99705: what IC50 was measured?
60

---

# IC50 per entry
target: Melanin-concentrating hormone receptor 1 (Homo sapiens, UniProt Q99705); experiment: Antagonist activity at MCHr1 assessed as inhibition of MCH-mediated calcium ion release in intact IMR32 cells by FLIPR assay; type: functional, cell-based, IMR-32
Numbers only; they are read as nM.

These recorded examples may help you get a feel for the data.
O=C(NC1CCN(Cc2ccc3c(c2)OCO3)CC1)c1cc(=O)c2c(Cl)c(Cl)ccc2o1 = 4750
CC(=O)c1ccc(CN2CCC(NC(=O)c3cc(=O)c4ccc(F)cc4o3)CC2)cc1 = 581
O=C(NC1CCN(Cc2ccc3c(c2)OCO3)CC1)c1cc(=O)c2ccc(Cl)cc2o1 = 79
O=C(NC1CCN(Cc2ccc3c(c2)OCO3)CC1)c1cc(=O)c2cc(F)c(F)c(F)c2o1 = 418
O=C(NC1CCN(Cc2ccc3c(c2)OCO3)CC1)c1cc(=O)c2cc(F)ccc2o1 = 196
O=C(NC1CCN(Cc2ccc3c(c2)OCO3)CC1)c1cc(=O)c2ccc(Br)cc2o1 = 82
O=C(NC1CCN(Cc2cc3c(cc2Cl)OCO3)CC1)c1cc(=O)c2ccc(F)cc2o1 = 266
O=C(NC1CCN(Cc2ccc3c(c2)OCO3)CC1)c1cc(=O)c2ccccc2o1 = 192

Looking for the measured IC50 of CCc1ccc2c(=O)cc(C(=O)NC3CCN(Cc4ccc5c(c4)OCO5)CC3)oc2c1 , can you help?
529

Given O=C(NC1CCN(Cc2ccc3c(c2)OCO3)CC1)c1cc(=O)c2cc(F)c(Cl)cc2o1 , state its recorded IC50.
71

Need IC50 of COc1ccc2c(=O)cc(C(=O)NCC3CCN(Cc4ccc5c(c4)OCO5)C3)oc2c1 (stereo unspecified) , thanks.
8300

May I ask what IC50 has been recorded for O=C(NC1CCN(Cc2ccc3c(c2)OC(F)(F)O3)CC1)c1cc(=O)c2ccc(F)cc2o1 ?
601

Entry COc1ccc2c(=O)cc(C(=O)NC3CCN(Cc4ccc5c(c4)OCO5)CC3)oc2c1 has what IC50?
73
